Reference for the values: PubChem BioAssay AID2508

assay: Confirmatory Assay for General miRNAs Modulators and/or Inhibitors/Activators of miR-21; settings: HeLa miR-21 FLuc reporter, luminescence, 48 h; series mostly up to 38.3 µM
Inconclusive results are not listed. The source made the active and inactive calls. Calls follow the shape of the dose curve; as a rule, active = well fitted inhibition curve with a large enough effect; inconclusive = small, poorly fitted or top-dose-only effect, or effect the other way; inactive = no such curve, though single readings can be large or run the other way.
API: response.call in active, inactive

Qu. Just curious, what result did COCC(=O)Nc1c(C(=O)Nc2ccc3c(c2)OCCO3)oc2ccccc12 get here?
Ans. active

Qu. Moving on to the next molecule: CC1=C(c2ccc(C)c(C)c2)S(=O)(=O)N=C1N1CCC(C(=O)NCCc2ccc(Cl)cc2)CC1
Ans. inactive

Qu. Proceed to O=C(CSc1nnc(-c2ccncc2)o1)Nc1nncs1
Ans. inactive

Qu. // same read-out, input: Cc1ccccc1OCCn1cnc2c(N)ncnc21
Ans. inactive

Qu. Can you check CC(=O)Nc1nc2c(C)cc(NC(=O)C3CCCCC3)cc2s1 next?
Ans. active

Qu. Similarly, COc1ccccc1C(=O)n1nc(-c2ccco2)nc1NCc1ccc(Cl)cc1 ?
Ans. active

Qu. COc1cc(-c2nc3cnccn3c2Nc2ccc(C(C)C)cc2)ccc1O ?
Ans. active

Qu. Moving on to COc1ccc(-n2nnc(-c3nc(-c4cccs4)no3)c2N)cc1OC
Ans. inactive

Qu. Okay, and Cc1c(-c2nsc(NC(=O)c3cccs3)n2)nnn1-c1ccc(F)cc1 ?
Ans. active

Qu. Entry to check: Nc1c(-c2nc(-c3ccccc3Cl)no2)nnn1-c1ccccc1F
Ans. active

Qu. Next up: CN(C)c1ccc(CNc2nc(-c3ccco3)nn2S(C)(=O)=O)cc1
Ans. active

Qu. Thanks! And COc1ccccc1NC(=O)C/C(C)=N/NC(=O)c1ccccn1 ?
Ans. inactive

Qu. Then this molecule: Nc1c(-c2nc(-c3cccs3)no2)nnn1-c1cccc(F)c1
Ans. active

Qu. Also need COc1ccc(NC(=O)CSc2nc(SC)ns2)c(OC)c1 , thanks.
Ans. active

Qu. What do you have for CCC(=O)n1nc(-c2cccnc2)nc1NCc1ccc(F)cc1 ?
Ans. inactive

Qu. And then Cc1c(-c2nsc(NC(=O)c3cccs3)n2)nnn1-c1ccc(Cl)cc1 , what is it?
Ans. active

Qu. Field entry: Cc1c(-c2nc(-c3ccc(C(F)(F)F)cc3)no2)n(C)oc1=O
Ans. active

Qu. Repeat for the following molecule: COc1ccc(NC(=O)c2ncn(-c3ccccc3)n2)cc1Cl
Ans. active

Qu. Similarly, Cc1ccc(Nc2ncnc(N)n2)cc1C ?
Ans. active

Qu. Then this molecule: CC(C)COc1ccc(C(=O)Nc2cc(-c3ccccc3)no2)cc1
Ans. active

Qu. Now give it for Nc1c(-c2nc(-c3ccncc3)no2)nnn1CC(=O)Nc1ccccc1 too.
Ans. inactive

Qu. And then CC(C)(C)C1CCc2nc(NC(=O)Cc3cn4ccsc4n3)sc2C1 (stereo not drawn) , what is it?
Ans. active

Qu. Same for CCc1ccc2oc(C(=O)Nc3nonc3CC)c(C)c2c1
Ans. active
